experiment: yeast display, Sf9 membrane polyspecificity reagent, FACS + sequencing; frameworks hold sequencing errors
measured-property: polyreactivity (PSR sort gate)

ordered-residues: QVQLVESGGGLVQAGGSLRLSCAASGSTFVYYTMGWYRQAPGKERELVATITYGGGSTYYADSVKGRFTISRDNAKNTVYLQMNSLKPEVTAVYYCAARPSWVRKMYYWGQGTQVTVSS
observed-value: high polyreactivity

ordered-residues: QVQLVESGGGLVQAGGSLRLSCAASGFIFRSNAMGWYRQAPGKERELVAAISGRGCSTYYADSVKGRFTISRDNAKNTVYLQMNSLKPVDTAVYYCAKSTVWVLYGYWGQGTQVTVSS
observed-value: high polyreactivity

ordered-residues: QVQHVESGGGLVQAGGSLRLSCAASGFTFFGDYAMGWYRQAPGKERELVAGISVSGGSTYYADSVKGRFTISRDNAKNSVYLQMNSLKPEDTGVYYCAARYSLKGGRYVYWGQGTQVTVSS
observed-value: high polyreactivity

ordered-residues: QVQLVESGAGLVQAGGSLRLSCPASGYIFWWTALGWSRQQPGKERELVAGISWSGSTTYYADSVKGRFTISRDNAKNTVYLQMNSLNPEDTAVYYCNAADITLYDYDYWGQGTQVTVSS
observed-value: low polyreactivity

ordered-residues: QVQHVESGGGLVQAGGSLRLSCAASGRISLSNAMGWYRQAPGKEREFVAAITKRSDRTYYADSVKGRFTISRDNAKNTVYLQMNSLKPEDTAVYYCAAKPLFGTRDDYWGLGTQVTVSS
observed-value: low polyreactivity

ordered-residues: QVQLVESGGGLVQAGGSLRLSCAASGSIFGSYTMGWYRQAPGKERELVAVINWSGDRTYYADSVKGRFTISRDNAKNNVYLHMNSLKPEDTAVYYCAARERAGYSGIRYNYWGQGSQVTVSS
observed-value: low polyreactivity

ordered-residues: EEELVESGGGLVQAGGSLLLSCAAYGRILPRNDMGWYRQAPGKERELVAVISSGGSTYYPDSVKGRFTISRDNAKNTVYLQINSVKPEDTAVYYCLGGYYYLQYDYWGQGTQVTVSS
observed-value: low polyreactivity

ordered-residues: QVQLVESGGGLVQAGGSLRLSCAASGSTFVVYAMGWYRQAPGKERELVARITLSDGSTNYADSVKGRFTISRDNAKNTVYLQMNSLKPEDTAVYYCAAEVVPFYYFWFDYWGQGTQVTVSS
observed-value: low polyreactivity

ordered-residues: QVQLVESVGGLVQAGGSLRLICAASGRIFVHYAMGWYRQAPGKERELVAAISWNGGRTFYADSVKGRFTISRDNAKNTVYLQMNSLKPEDTAVSYCAARSRYSLDYWGQGTQVTVSS
observed-value: high polyreactivity

ordered-residues: QVQLVESGGGLVQAGGSLRLAVLPPDLPSTLNDMGWYRQAPGKERELVAAITRGGSTNYADSVKGRFTLSRDNAKNTVYLQMNSLKPEDTAVYYCAAPYAGWRDGGDYWGQGTQVTVSS
observed-value: low polyreactivity

ordered-residues: QVQLVESGGGLVQAGGSLRLSCAASGITFGTYAMGWYRQAPGKERELDAAIDTSGDDTYYADSVKGRFTISRDNAKNTVYLQMNSLKPEDTAVYYCAADFPSAEVDYWGQGTQVTVSS
observed-value: low polyreactivity

ordered-residues: QVQLVESGGGLVQAGGSLRLSCAASGRIFFPYDMGWYRQAPGKERELVAAITNSGGRTYYADSVKGRFTISRDNAKNTVYLQMNSLKPEDTAVYYCAARYGSGGDYWGQGTQVTVSS
observed-value: low polyreactivity

ordered-residues: QVQLVESAAGLVQAGGSLRLSCAPSGSTFPRYAMGWYRQAPGKERELVAAITKNGGYTYYADSVKGRFTISRDNAKNTVYLQMNSLKPEDTAVYYCAAERWYSCYRVGVSYDYWGQGTQVTVSS
observed-value: high polyreactivity

ordered-residues: QVQLVESGGGLVQAGGSLRLSCAASGFIFPWNAMAWYRQAPRKERELVAAISFSGGSTYYADSVKGRFTISRDNAKNTVYLQMNSLKPEDTAVYYCAKRTWDLRRTRHYYWGQGTQVTVSS
observed-value: low polyreactivity

ordered-residues: QVQLVESGGGLVQAGGSLRLSCAASGIIFAYYAMGWYRQAPGKERELVGTNYADSVKGRFTISRDNAKNTVYLQMNSLKPEDTAVYYCAADFLYYSSGGKMDYWGQGTQVTVSS
observed-value: low polyreactivity

ordered-residues: QVQLVESGGGLVQAGGSLRLSCAASGSIFRVYAMGWYRQAPGKERELVARISWSDDGTYYADSVKGRFTISRDNAKNTVYLQMNSLKPEDTAVYYCNADSYYYPYDYWGQGTQVTVSS
observed-value: low polyreactivity

ordered-residues: QVQLVESGGGLVQAGGSLRLSCAASGRIFRYYDMGWYRQAPGKEREFVAAITRSGAITYYADSVKGRFTISRDNAKNTVYLQMNSLKPEDTAVYYCAARYWAKFGYWGQGTQVTVSS
observed-value: low polyreactivity

ordered-residues: QVQLVESGGGLVQAGGSLRLSCAASGRIFVSNAMGWYRQAPGKERELVAAISKSGGRTYYADSVKGRFTISRVNAKNTVYLQMNSLKPEDTAVYYCAARSRVSPRYDYWGQGTQVTVSS
observed-value: high polyreactivity

ordered-residues: QVQLVESGGGLVQAGGSLRLSCAASGRTFTRYAMGWSRQAPGKERELVAAITSTGSTYYADSVKGRFTISRDNAKNTVYLQMNSLKPEDTAVYYCNKVGIRYYYGYDYWGQGTQVTVSS
observed-value: high polyreactivity

ordered-residues: QVQLVESGGGLVQAGGSLRLSCASSGRTFLGYAMGWYRQAPGKERELVAAISYSGSSTYYADSVKGRFTISRDNAKNTVYLQMNSLKPEDTAVYYCAAQFYFLFDYWGQGTQVTVSS
observed-value: low polyreactivity

ordered-residues: QVQLVESGGGLVQAGGSLRLSCAASGSILQQYTMGWYRPAPGKERELVAAISSSGSSTYYADSVKGRFTISRDNAKNTVYLQMNSLKPEDTAVYYCNADYHDKFYWGQGTQVTVSS
observed-value: low polyreactivity
